These data points were gathered from ChEMBL document CHEMBL1201862.

test system: A549; test: NCI tumour cell line growth inhibition, 48 h
The source made the active and inactive calls. No stated cut-off is given here; in the data, active = GI50 up to about 1.1 µM and inactive = higher.
Result category, one only: active, inactive

Each molecule tested received a call. Report the one for "CCNC(=S)NNC(=O)C12CC3CC(CC(C3)C1)C2" .
inactive

Each molecule tested received a call. Report the one for CC1(C)OC(C[C@]2(C#N)C[C@H](CCl)OC(C)(C)O2)C[C@@H](C[C@]2(C#N)C[C@H](CCl)OC(C)(C)O2)O1 (stereo partly specified) .
inactive

Each molecule tested received a call. Report the one for "CC1(C)CCC(=O)c2c(O)ccc(O)c21" .
inactive

Each molecule tested received a call. Report the one for "C#CCn1c(=O)c2cccnc2n(CC#C)c1=O" .
inactive

Each molecule tested received a call. Report the one for "CCCCc1ccc(-n2sc3ncc(C)cc3c2=O)cc1" .
inactive

Each molecule tested received a call. Report the one for COc1ccc(C2N(c3ccc(F)c([N+](=O)[O-])c3)C(=O)N3C(c4ccc(OC)cc4)N(c4ccc(F)c([N+](=O)[O-])c4)C(=O)N23)cc1 (stereo unspecified) .
inactive

Each molecule tested received a call. Report the one for "Cc1[nH]c2ccccc2c1C(=O)/C=C/c1ccccc1O" .
inactive

Each molecule tested received a call. Report the one for "Cn1c(=O)c2c(nc(-n3nc(-c4ccc(Cl)cc4)cc3N)n2C)n(C)c1=O" .
inactive

Each molecule tested received a call. Report the one for COC(=O)CC[C@@H](NC(=O)C(C)NC(=O)COC1C(O)C(COC(=O)CCCCCCCCCCNC(=O)c2ccc([N+](=O)[O-])c3[nH]c4cc(Br)ccc4c(=O)c23)OC(OCc2ccccc2)C1NC(C)=O)C(N)=O (stereo partly specified) .
inactive

Each molecule tested received a call. Report the one for "COc1nc2c(c(=O)n1C)N[C@@H]1[C@@H](O)[C@H](O)CO[C@@H]1N2" .
inactive

Each molecule tested received a call. Report the one for "COC(=O)c1c(O)ccc2c1c1c(n2Cc2ccc(Cl)cc2Cl)C(=O)c2ccccc2C1=O" .
inactive

Each molecule tested received a call. Report the one for "COC(=O)C#Cc1cccc(OC)c1OC" .
inactive

Each molecule tested received a call. Report the one for "O=Cc1c[nH]c2c(=O)[nH]cnc12" .
inactive

Each molecule tested received a call. Report the one for "Cc1cc(CCC(=O)NCCNc2c3ccccc3nc3ccccc23)cc(C)c1O[Si](C)(C)C(C)(C)C" .
active

Each molecule tested received a call. Report the one for "COCCOCC(=O)N(CCn1ccc(NC(c2ccccc2)(c2ccccc2)c2ccccc2)nc1=O)CCn1cnc2nc(N)[nH]c(=O)c21" .
inactive

Each molecule tested received a call. Report the one for CC(NS(=O)(=O)c1ccc(Cl)cc1)C(=O)O (stereo unspecified) .
inactive

Each molecule tested received a call. Report the one for COC(=O)C1CC2(CCC1=O)Cc1ccccc1C2=O (stereo unspecified) .
inactive

Each molecule tested received a call. Report the one for "COc1ccc2c(c1)c(=O)c1c(NCCN(C)C)ccc3nnn2c31" .
inactive

Each molecule tested received a call. Report the one for "COc1cc(/C=N/c2ccccn2)cc(OC)c1OC" .
inactive

Each molecule tested received a call. Report the one for "CC1=NN2C(=N)/C(=C/c3ccccc3)C(=O)N=C2S1" .
inactive

Each molecule tested received a call. Report the one for "Cc1ccc2nc3c(C(=O)NCCN(C)C)cccc3nc2c1" .
inactive

Each molecule tested received a call. Report the one for COC1C=COC2(C)Oc3c(C)c(O)c4c(O)c(c(C5SCCS5)c(O)c4c3C2=O)NC(=O)C(C)=C/C=C\C(C)C2OC(C)(C)OC(C2C)C(C)C(OC(C)=O)C1C (stereo unspecified) .
inactive

Each molecule tested received a call. Report the one for CSc1nc(NC2OCC(O)C(O)C2O)c(N)c(=O)[nH]1 (stereo unspecified) .
inactive

Each molecule tested received a call. Report the one for "CC(=O)Oc1ccc2c(c1)O/C(=C\c1ccc(O)cc1)C2=O" .
inactive

Each molecule tested received a call. Report the one for Cc1ccc([N+](=O)[O-])cc1NC(=O)C(=O)C1CCC2=C(Sc3ccccc3N2)C1=O (stereo unspecified) .
inactive

Each molecule tested received a call. Report the one for "O=C1NC(SSC2=NNC3(C(=O)N2)c2ccccc2-c2ccccc23)=NNC12c1ccccc1-c1ccccc12" .
inactive

Each molecule tested received a call. Report the one for "COC(=O)c1c(O)c2c(c3c1OC(C)(C)CC3)OC(C)(C)CC2" .
inactive

Each molecule tested received a call. Report the one for "Cc1[nH]c(=O)[nH]c(=O)c1N(CCF)CCCl" .
inactive

Each molecule tested received a call. Report the one for "COc1cccc(N2CCc3c(C)c(C#N)c4nc5ccccc5n4c32)c1" .
inactive

Each molecule tested received a call. Report the one for "COc1ccc(OC)c(/C=C/c2cnnc3ccccc23)c1" .
inactive

Each molecule tested received a call. Report the one for COCN1C(=O)C2CC(/C=C/C(N)=O)=CN2C(=O)c2ccccc21 (stereo unspecified) .
inactive

Each molecule tested received a call. Report the one for C=C1C(=O)OC2C=C(CCC(C)=O)C(C)C(OC(C)=O)CC12 (stereo unspecified) .
inactive

Each molecule tested received a call. Report the one for "Cc1c2c(n(Cc3ccccn3)c1C)NN=C(C#N)S2(=O)=O" .
inactive

Each molecule tested received a call. Report the one for "CCCCC/C=C\C=C\CCCCCCCCC(=O)OC" .
inactive

Each molecule tested received a call. Report the one for CC(NC(=O)OC(C)(C)C)C(=O)NC(Cc1ccccc1)C(=O)NCC(=O)ON=C1CCCC1 (stereo unspecified) .
inactive

Each molecule tested received a call. Report the one for CC(=O)OC1COC(Nn2c(=O)[nH]c3ccccc3c2=O)C(OC(C)=O)C1OC(C)=O (stereo unspecified) .
inactive
